Where do the numbers come from? From PubChem BioAssay.

test: reversal of MRP1-mediated doxorubicin resistance, pilot screen, H69AR cells, doxorubicin co-treatment (AID 601); conditions: H69AR cells, CellTiter-Glo, 72 h; compound alone cytotoxicity; at 10 µM
Let's look at some compounds and their measured viability.
Numeric answer only, unit % assumed.

Task: viability lookup needed for COc1ccc(OC)c(C2C(C(=O)Nc3cccnc3)=C(C)NC3=C2C(=O)CCC3)c1 (stereo unspecified) , thanks.
Result: 98.4

---
Task: viability lookup needed for COc1cccc(-n2nc(C(=O)Nc3ccc4c(c3)OCO4)c3ccccc3c2=O)c1 , thanks.
Result: 92.2

Task: viability lookup needed for C=CCSC1=C(C#N)C(c2ccccc2Cl)CC(=O)N1 (stereo unspecified) , thanks.
Result: 96.5

Task: viability lookup needed for CCCc1nn(CCc2ccccn2)c(N)c1CC , thanks.
Result: 96.5

Task: viability lookup needed for CC1(C)CC(=O)C(CC2=C(O)CC(C)(C)CC2=O)=C(O)C1 , thanks.
Result: 102

Task: viability lookup needed for O=S(=O)(c1ccc2ccccc2c1)N(CC(O)CN1CCOCC1)c1ccccc1 (stereo unspecified) , thanks.
Result: 100
